These data points were gathered from patent US5210193A.

Tested on: Acinetobacter calcoaceticus MOR 84-43
ASSAY_DETAILS: in vitro antibacterial MIC, agar plate dilution
Format: cell-based
PROTOCOL_CONDITIONS: MOR8443, 18 hours, 35° C., read-out: MIC
// boundary case: MIC equal to 1 µg/mL maps to f; strictly smaller maps to t

Query: Consider `CCn1cc(C(=O)O)c(=O)c2c(F)c(F)c(N3CCSCC3)c(F)c21` . Does its MIC lie strictly below 1 µg/mL?
Reply: f

Query: Consider CCn1cc(C(=O)O)c(=O)c2cc(F)c(N3CCN(C)C(c4sc5ccccc5c4C)C3)cc21 (stereo not shown) . Does its MIC lie strictly below 1 µg/mL?
Reply: f

Query: Consider CCn1cc(C(=O)O)c(=O)c2cc(F)c(N3CCNC(CF)C3)c(F)c21 (racemic) [Example 63] . Does its MIC lie strictly below 1 µg/mL?
Reply: t

Query: Consider CCn1cc(C(=O)O)c(=O)c2cc(F)c(N3CCNC(c4ccc(C)s4)C3)cc21 (stereo not shown) . Does its MIC lie strictly below 1 µg/mL?
Reply: f

Query: Consider CCn1cc(C(=O)O)c(=O)c2cc(F)c(N3CCN(C)C(c4cc5cc(Cl)ccc5o4)C3)cc21 (stereo not shown) . Does its MIC lie strictly below 1 µg/mL?
Reply: f

Query: Consider O=C(O)c1cn(C2CC2)c2cc(N3CCNC(c4ccco4)C3)c(F)cc2c1=O (stereo not shown) . Does its MIC lie strictly below 1 µg/mL?
Reply: t

Query: Consider CCn1cc(C(=O)O)c(=O)c2cc(F)c(N3CCNC(c4ccsc4)C3)cc21 (stereo not shown) . Does its MIC lie strictly below 1 µg/mL?
Reply: f

Query: Consider CCn1cc(C(=O)O)c(=O)c2cc(F)c(N3CCNC(CNC)C3)cc21.Cl.Cl (stereo not shown) . Does its MIC lie strictly below 1 µg/mL?
Reply: f

Query: Consider CN1CCN(c2cc3c(cc2F)c(=O)c(C(=O)O)cn3C2CC2)CC1c1ccsc1 (stereo not shown) . Does its MIC lie strictly below 1 µg/mL?
Reply: f

Query: Consider O=C(O)c1cn(-c2ccc(F)cc2)c2cc(N3CCNC(c4ccco4)C3)c(F)cc2c1=O (stereo not shown) . Does its MIC lie strictly below 1 µg/mL?
Reply: t

Query: Consider CCn1cc(C(=O)O)c(=O)c2cc(F)c(N3CCNC(CF)C3)c(F)c21 (single isomer, unassigned; (-)) [Example 64] . Does its MIC lie strictly below 1 µg/mL?
Reply: t

Query: Consider CCn1cc(C(=O)O)c(=O)c2cc(F)c(N3CCNC(c4ccco4)C3)cc21 (stereo not shown) . Does its MIC lie strictly below 1 µg/mL?
Reply: f
